# Test system: NCI-H226 lung
# PROTOCOL_TEXT: NCI-60 one-dose screen, 48 h (100 = growth as untreated, 0 = no growth, -100 = all killed)
# MEASUREMENT_SETUP: 10 µM unless noted
About 83,000 compounds went through this panel and 20% of them were active in at least one assay; those are over-represented in the sample as a whole.
# note: boundary value 80% maps to 0 (no); growth below it maps to 1 (yes)

Answered cases to consult:
>>> df
                                   molecule    label
0  COc1ccc(-c2cc(-c3ccccc3)nc(SCCCC(=O)NO)n2)cc1OC  1 (yes)
1  N[C@H]1CN(C(=O)c2cc3cc(Br)c(F)c(F)c3[nH]2)C[C@@H]1O   0 (no)
2    Fc1ccc(CNCCNc2ncnc3c2cnn3-c2ccccc2)cc1   0 (no)
3  S=c1[nH]nc(-c2cc3ccc2CCc2ccc(cc2)CC3)n1-c1ccccc1   0 (no)

Attention now turns to another entry.
In plain terms, does "COc1ccc(-c2[nH]nc(N)c2-c2cc(OC)c3c(c2)OCO3)cc1" come in under 80% for growth?
0 (no)
